Molecular target: TEC (Homo sapiens, UniProt P42680)
Sequence (P42680 1-631): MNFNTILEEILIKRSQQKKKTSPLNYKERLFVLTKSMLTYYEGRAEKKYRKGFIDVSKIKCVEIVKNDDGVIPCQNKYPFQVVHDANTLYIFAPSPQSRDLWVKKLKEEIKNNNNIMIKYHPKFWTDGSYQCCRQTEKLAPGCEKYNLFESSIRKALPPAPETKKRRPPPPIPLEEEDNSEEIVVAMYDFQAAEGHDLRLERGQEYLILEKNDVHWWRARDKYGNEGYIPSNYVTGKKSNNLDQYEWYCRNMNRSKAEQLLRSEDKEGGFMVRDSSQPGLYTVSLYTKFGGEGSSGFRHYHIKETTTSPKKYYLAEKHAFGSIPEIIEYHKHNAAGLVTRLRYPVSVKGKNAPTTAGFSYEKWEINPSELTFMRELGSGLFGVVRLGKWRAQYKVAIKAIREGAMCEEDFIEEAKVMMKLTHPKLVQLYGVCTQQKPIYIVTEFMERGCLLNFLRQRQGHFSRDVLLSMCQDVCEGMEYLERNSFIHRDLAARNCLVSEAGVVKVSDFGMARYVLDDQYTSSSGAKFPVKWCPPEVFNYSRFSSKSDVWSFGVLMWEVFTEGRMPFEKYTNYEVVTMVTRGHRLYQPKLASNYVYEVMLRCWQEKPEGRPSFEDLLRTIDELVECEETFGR
pIC50: −log10 of the molar value.
Property measured: pIC50

Report pIC50, nothing else, for this compound: N#CN1C[C@H](n2nc(-c3ccc(Oc4ccc(F)cc4F)cc3)c(C(N)=O)c2N)CCC12CC2 [WS-411]
> 7.00

###

molecular target: UniProt:P00533; experiment: In vitro kinase selectivity assay, EGFR (TR-FRET); type: biochemical; conditions: read-out: EGFR kinase inhibitory activity grade
Sequence (P00533 25-1210): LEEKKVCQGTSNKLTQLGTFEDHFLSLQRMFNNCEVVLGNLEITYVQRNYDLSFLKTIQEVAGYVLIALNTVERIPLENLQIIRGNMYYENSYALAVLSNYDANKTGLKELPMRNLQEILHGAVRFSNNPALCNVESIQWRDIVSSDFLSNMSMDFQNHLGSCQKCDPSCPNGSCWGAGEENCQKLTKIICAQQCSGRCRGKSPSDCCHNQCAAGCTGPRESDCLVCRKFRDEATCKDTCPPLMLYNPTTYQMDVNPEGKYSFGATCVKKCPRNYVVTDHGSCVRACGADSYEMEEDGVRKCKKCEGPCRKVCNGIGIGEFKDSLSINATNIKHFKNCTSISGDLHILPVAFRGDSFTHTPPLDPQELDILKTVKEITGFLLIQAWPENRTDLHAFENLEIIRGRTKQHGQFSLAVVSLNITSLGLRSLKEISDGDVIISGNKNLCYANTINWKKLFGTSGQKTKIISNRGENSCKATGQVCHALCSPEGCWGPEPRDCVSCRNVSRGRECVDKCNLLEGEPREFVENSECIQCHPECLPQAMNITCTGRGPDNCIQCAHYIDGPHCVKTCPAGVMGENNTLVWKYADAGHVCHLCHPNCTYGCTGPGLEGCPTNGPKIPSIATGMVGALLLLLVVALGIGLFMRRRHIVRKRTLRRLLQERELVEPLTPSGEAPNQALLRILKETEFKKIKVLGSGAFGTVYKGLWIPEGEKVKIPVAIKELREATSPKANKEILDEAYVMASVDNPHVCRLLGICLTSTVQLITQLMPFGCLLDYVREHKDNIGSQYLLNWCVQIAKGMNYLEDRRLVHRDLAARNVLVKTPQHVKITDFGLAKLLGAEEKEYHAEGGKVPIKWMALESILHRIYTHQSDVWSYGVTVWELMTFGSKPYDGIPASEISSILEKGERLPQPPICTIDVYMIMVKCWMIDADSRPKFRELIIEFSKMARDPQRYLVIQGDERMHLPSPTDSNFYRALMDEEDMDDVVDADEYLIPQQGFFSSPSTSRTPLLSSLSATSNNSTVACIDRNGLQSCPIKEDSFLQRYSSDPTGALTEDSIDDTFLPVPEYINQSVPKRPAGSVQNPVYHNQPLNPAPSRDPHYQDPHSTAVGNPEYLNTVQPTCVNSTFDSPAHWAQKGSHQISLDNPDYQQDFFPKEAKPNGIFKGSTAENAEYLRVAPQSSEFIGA
Catalogue of IC50 readings, one per entry.

>>> meas_value("N#CN1C[C@H](n2nc(-c3ccc(Oc4ccc(F)cc4F)cc3)c(C(N)=O)c2N)CCC12CC2 [WS-411]")
"> 1 µM"

Report IC50, nothing else, for this compound: N#CN1C[C@H](n2nc(-c3ccc(Oc4ccc(Cl)cn4)cc3)c(C(N)=O)c2N)CCC12CC2 [WS-413]
0.1 to 1 µM

###

biological target: Recombinant Btk (Homo sapiens); experiment: Kinase activity (BTK) inhibition assay, TR-FRET; details: read-out: BTK kinase inhibitory activity grade (A/B/C)
Sequence (Q06187 whole entry): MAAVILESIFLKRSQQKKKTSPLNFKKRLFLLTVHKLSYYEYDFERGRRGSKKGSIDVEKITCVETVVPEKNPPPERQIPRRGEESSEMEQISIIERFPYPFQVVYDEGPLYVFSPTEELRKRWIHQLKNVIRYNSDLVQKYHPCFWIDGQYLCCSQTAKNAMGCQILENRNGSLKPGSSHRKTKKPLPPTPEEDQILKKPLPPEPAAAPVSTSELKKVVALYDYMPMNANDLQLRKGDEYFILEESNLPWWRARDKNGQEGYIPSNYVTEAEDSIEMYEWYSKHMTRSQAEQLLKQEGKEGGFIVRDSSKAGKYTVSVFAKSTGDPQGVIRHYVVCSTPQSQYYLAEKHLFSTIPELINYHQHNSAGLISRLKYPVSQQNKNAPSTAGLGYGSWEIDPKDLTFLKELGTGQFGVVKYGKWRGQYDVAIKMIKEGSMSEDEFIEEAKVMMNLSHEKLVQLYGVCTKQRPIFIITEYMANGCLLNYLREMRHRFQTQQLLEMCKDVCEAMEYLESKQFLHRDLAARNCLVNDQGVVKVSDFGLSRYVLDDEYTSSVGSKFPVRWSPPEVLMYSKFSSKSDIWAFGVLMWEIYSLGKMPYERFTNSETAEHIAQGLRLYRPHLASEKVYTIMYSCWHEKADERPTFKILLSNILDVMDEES
Catalogue of IC50 readings, one per entry.

Here is how some molecules turned out for IC50.
>>> meas_value("NC(=O)c1c(-c2ccc(Oc3ccc(Cl)cn3)cc2)nn(C2CCC3(CC3)N(C(=O)/C=C/CO)C2)c1N (centres unmarked) [WS-406]")
"< 100 nM"
>>> meas_value("N#CN1C[C@H](n2nc(-c3ccc(Oc4ccc(F)cc4F)cc3)c(C(N)=O)c2N)CCC12CC2 [WS-411]")
"< 100 nM"
>>> meas_value("C[C@H]1CC[C@@H](n2nc(-c3ccc(Oc4ccc(Cl)cn4)cc3)c(C(N)=O)c2N)CN1C#N [WS-401]")
"< 100 nM"
>>> meas_value("N#CN1CC(n2nc(-c3ccc(Oc4ccc(Cl)cn4)cc3)c(C(N)=O)c2N)CCC12CC2 (centres unmarked) [WS-405]")
"< 100 nM"

Report IC50, nothing else, for this molecule: N#CN1C[C@@H](n2nc(-c3ccc(Oc4ccc(Cl)cn4)cc3)c(C(N)=O)c2N)CCC12CC2 [WS-414]
100 to 1000 nM

Report IC50, nothing else, for this molecule: N#CN1CC(n2nc(-c3ccc(Oc4ccc(F)cc4F)cc3)c(C(N)=O)c2N)CCC12CC2 (centres unmarked) [WS-408]
< 100 nM

Report IC50, nothing else, for this molecule: C[C@@H]1CC[C@@H](n2nc(-c3ccc(Oc4ccc(Cl)cn4)cc3)c(C(N)=O)c2N)CN1C#N [WS-403]
100 to 1000 nM

Report IC50, nothing else, for this molecule: C[C@H]1CC[C@H](n2nc(-c3ccc(Oc4ccc(Cl)cn4)cc3)c(C(N)=O)c2N)CN1C#N [WS-404]
100 to 1000 nM

Report IC50, nothing else, for this molecule: CC#CC(=O)N1C[C@H](n2nc(-c3ccc(Oc4ccc(Cl)cn4)cc3)c(C(N)=O)c2N)CCC12CC2 [WS-416]
< 100 nM

Report IC50, nothing else, for this molecule: CC#CC(=O)N1C[C@H](n2nc(-c3ccc(Oc4ccc(F)cc4F)cc3)c(C(N)=O)c2N)CCC12CC2 [WS-421]
< 100 nM

Report IC50, nothing else, for this molecule: C[C@@H]1CC[C@H](n2nc(-c3ccc(Oc4ccc(Cl)cn4)cc3)c(C(N)=O)c2N)CN1C#N [WS-402]
100 to 1000 nM

Report IC50, nothing else, for this molecule: C=CC(=O)N1CC(n2nc(-c3ccc(Oc4ccc(Cl)cn4)cc3)c(C(N)=O)c2N)CCC12CC2 (centres unmarked) [WS-407]
< 100 nM

###

target: Recombinant Btk (Homo sapiens); assay: Kinase activity (BTK) inhibition assay, TR-FRET; details: read-out: BTK kinase inhibitory activity grade (A/B/C)
Catalogue of IC50 readings, one per entry.

Here is how some compounds turned out for IC50.
>>> meas_value("C=CC(=O)N1CC(n2nc(-c3ccc(Oc4ccc(F)cc4F)cc3)c(C(N)=O)c2N)CCC12CC2 (centres unmarked)")
"< 100 nM"
>>> meas_value("N#CN1C[C@@H](n2nc(-c3ccc(Oc4ccc(F)cc4F)cc3)c(C(N)=O)c2N)CCC12CC2")
"> 1000 nM"
>>> meas_value("N#CN1C[C@H](n2nc(-c3ccc(Oc4ccc(Cl)cn4)cc3)c(C(N)=O)c2N)CCC12CC2")
"< 100 nM"
>>> meas_value("NC(=O)c1c(-c2ccc(Oc3ccc(F)cc3F)cc2)nn(C2CCC3(CC3)N(C(=O)/C=C/CO)C2)c1N (centres unmarked)")
"< 100 nM"

Now consider a different compound.
Name the value of IC50 reported for `CC#CC(=O)N1C[C@@H](n2nc(-c3ccc(Oc4ccc(Cl)cn4)cc3)c(C(N)=O)c2N)CCC12CC2` when tested on Recombinant Btk (Homo sapiens).
100 to 1000 nM

All figures here come from patent US10882843B2.
